subject.of.test: P2X purinoceptor 3 (Homo sapiens, UniProt P56373)
Sequence (P56373 whole entry): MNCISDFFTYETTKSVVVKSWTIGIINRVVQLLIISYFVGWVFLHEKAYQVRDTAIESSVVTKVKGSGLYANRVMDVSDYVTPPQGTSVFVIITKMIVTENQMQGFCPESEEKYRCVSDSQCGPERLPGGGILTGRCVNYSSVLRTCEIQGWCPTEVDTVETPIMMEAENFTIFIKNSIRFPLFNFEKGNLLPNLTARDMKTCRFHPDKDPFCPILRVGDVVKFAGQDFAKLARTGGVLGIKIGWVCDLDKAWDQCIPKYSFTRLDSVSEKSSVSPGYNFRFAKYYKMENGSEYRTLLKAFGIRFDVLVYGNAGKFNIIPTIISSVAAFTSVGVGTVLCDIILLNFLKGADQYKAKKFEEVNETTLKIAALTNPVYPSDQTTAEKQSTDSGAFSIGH
protocol.text: Antagonist activity at human P2X3 receptor expressed in Xenopus oocytes assessed as inhibition of ATP-induced ion current by two electrode voltage clamping technique
Format: functional, cell-based, Oocyte
pIC50: −log10 of the molar value. Residues, ends and D or L forms follow the SMILES beside them.
Recorded pIC50 by entry

compound	pIC50
Cc1nc(/N=N/c2cc(S(=O)(=O)O)ccc2S(=O)(=O)O)c(COP(=O)(O)O)c(C=O)c1O [ISOPPADS]	6.97
CC(C)C[C@@H]1NC(=O)[C@H]([C@@H](C)O)NC(=O)[C@H](Cc2c[nH]c3ccccc23)NC(=O)[C@@H]2CCCN2C(=O)[C@H](Cc2ccc(O)cc2)NC(=O)[C@H](C(C)C)NC(=O)[C@H](C(C)C)NC1=O (HELM PEPTIDE1{L.V.V.Y.P.W.T}$PEPTIDE1,PEPTIDE1,1:R1-7:R2$$$V2.0)	7.08
